Assay: inhibitors of the yeast RAM network, pilot screen, dse1pr::URA3 reporter, 5-FOA selection (AID 869);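 also: 0% = DMSO wells with no growth and 100% = 10 µM 1-NA-PP1 with full growth; RAM network block rescues cells from 5-FOA so hits raise OD615 growth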
Conditions: S. cerevisiae dse1pr::URA3 5-FOA growth, OD615, 2 d; at 10 µM; active compounds read high; strain carries analog-sensitive mutant Cbk1 kinase
The source made the active and inactive calls.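 The calls were made as follows: active = inhibition over a set limit, the all-compound mean plus 3 SD, in both replicate runs; inconclusive = over that limit in just one replicate run; inactive = at or under that limit in both runs.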
test.readout: inhibition

Example results:
COCCn1c(=O)[nH]c2cc(C(=O)NCCN3CCN(c4ccccc4F)CC3)ccc2c1=O
1.31% (inactive)
CCOCCCNC(=O)c1cccs1
2.22% (inactive)
Cn1c(NC(=O)c2ccccc2)cc(=O)n(C)c1=O
1.12% (inactive)
Cn1cccc1Cc1nnc(SCC(=O)NC2CCCC2)n1CCc1ccccc1
1.71% (inactive)
O=C1c2ccccc2N2C(=O)c3ccccc3C2N1Cc1ccco1 (stereo unspecified)
3.68% (inactive)

We next turn to a different compound, shown below.
Per the record, COC(=O)NCC(c1cccnc1)N1CCN(c2ccccc2)CC1 (stereo unspecified) has inhibition of 0.355% (inactive)
